Where do the numbers come from? From paper PMC7478165.

Form field: Mouse PK (IV) UC (0-inf) (one value per entry).
Assay: Murine intravenous PK study
Format: in vivo
Details: IV 1 mg kg^–1
API: value field is a number in ng h mL^–1; no unit string.

Guide cases for Mouse PK (IV) UC (0-inf), answers given:
Molecule	Scale unit	Val
C/C1=C\CC[C@@]2(C)O[C@@H]2[C@H]2OC(=O)[C@@H](CN3CCC(c4cc(O)nc(C)n4)CC3)[C@@H]2CC1 [C00012]	ng h mL^–1	289
C/C1=C\CC[C@@]2(C)O[C@@H]2[C@H]2OC(=O)[C@@H](CN3CCCC3)[C@@H]2CC1 [C00011]	ng h mL^–1	80.5
CC1=CCCC2(C)OC2C2OC(=O)C(CN3CCCC3)C2CC1 (stereo not shown) [Compound 5a]	ng h mL^–1	80.5

# context switch: different molecule, same Mouse PK (IV) UC (0-inf)
QUERY: Find the recorded Mouse PK (IV) UC (0-inf) belonging to C/C1=C\CC[C@@]2(C)O[C@@H]2[C@H]2OC(=O)[C@@H](CN3CCC(c4cc(O)nc(C)n4)CC3)[C@@H]2CC1 [Compound 5f] and report it.
RESULT: 289

====

EC50 by entry:
Tested on: MEC1 CLL cell line
Assay: cells
Parameters: alamarBlue (resazurin reduction) viability assay in MEC1 CLL cells
Conditions: Homo sapiens, MEC1, 24 h; read-out: alamarBlue EC50 (uM) average
Answer format: numeric, µM implied, no suffix.

Compound	EC50, µM
COCCN1CCN(CC2C(=O)OC3C2CCC(C)=CCCC2(C)OC32)CC1 (stereo not drawn)	19.5
COc1ccc(CN(C)C[C@@H]2C(=O)O[C@H]3[C@H]2CC/C(C)=C/CC[C@@]2(C)O[C@H]32)cc1OC	9.7
CC1=CCCC2(C)OC2C2OC(=O)C(CNCc3ccccc3)C2CC1 (stereo not drawn)	20.4
CC1=CCCC2(C)OC2C2OC(=O)C(CN(C)CCO)C2CC1 (stereo not drawn)	5.2

Now take the following compound into account.
QUERY: Form: Entry = C/C1=C\CC[C@@]2(C)O[C@@H]2[C@H]2OC(=O)[C@@H](CN(CCO)C3CCCCC3)[C@@H]2CC1 | System = MEC1 CLL cell line | EC50 = ____
RESULT: 10

====

Assay: Caco-2 permeability assay
Type: in vitro ADME
Conditions: human, Caco-2; pH 7.4, B to A
Here the recorded Papp B→A is given for each entry.
Answer in ×10⁻⁶ cm/s, number only, no unit symbol.

Here's what some known entries look like.
Molecule	Scale unit	Val
C/C1=C\CC[C@@]2(C)O[C@@H]2[C@H]2OC(=O)[C@@H](CN3CCC(c4cc(O)nc(C)n4)CC3)[C@@H]2CC1 [C00008]	×10⁻⁶ cm/s	2.8
C/C1=C\CC[C@@]2(C)O[C@@H]2[C@H]2OC(=O)[C@@H](CN3CCCC3)[C@@H]2CC1 [C00005]	×10⁻⁶ cm/s	16.2
C/C1=C\CC[C@@]2(C)O[C@@H]2[C@H]2OC(=O)[C@@H](CN3CCC(OCc4cccnc4)CC3)[C@@H]2CC1 [C00009]	×10⁻⁶ cm/s	9.1

QUERY: Returns the measured Papp B→A for the input molecule. Input: C/C1=C\CC[C@@]2(C)O[C@@H]2[C@H]2OC(=O)[C@@H](CN[C@@H](Cc3ccccc3)C(=O)O)[C@@H]2CC1 [C00010]
RESULT: 4.2

====

The compounds listed here are annotated with their LipE pEC50–clog P.
Test system: MEC1 CLL cell line
Assay: alamarBlue assay, in vitro antileukaemic activity against MEC1 CLL cell line
Type: cell-based
Settings: MEC1 cell line pEC50 minus calculated log P
The answer should be written as a number, with no unit following it.

For orientation, consider the following solved cases.
Compound	LipE pEC50–clog P
CCN(CCO)C[C@@H]1C(=O)O[C@H]2[C@H]1CC/C(C)=C/CC[C@@]1(C)O[C@H]21	3.31
COc1ccc(CN(C)C[C@@H]2C(=O)O[C@H]3[C@H]2CC/C(C)=C/CC[C@@]2(C)O[C@H]32)cc1OC	1.48
C/C1=C\CC[C@@]2(C)O[C@@H]2[C@H]2OC(=O)[C@@H](CN(C)C)[C@@H]2CC1 [DMAPT, dimethyl amino-PTL, reference compound]	3.19
C/C1=C\CC[C@@]2(C)O[C@@H]2[C@H]2OC(=O)[C@@H](CN3CCC(c4cc(O)nc(C)n4)CC3)[C@@H]2CC1 [C00008]	3.69
C/C1=C\CC[C@@]2(C)O[C@@H]2[C@H]2OC(=O)[C@@H](CN3CCC(OCc4cccnc4)CC3)[C@@H]2CC1	2.29
CCn1cc(CN(C[C@@H]2C(=O)O[C@H]3[C@H]2CC/C(C)=C/CC[C@@]2(C)O[C@H]32)C(C)C)cn1	1.61
CC1=CCCC2(C)OC2C2OC(=O)C(CN3CCCC3)C2CC1 (stereo not drawn)	2.35
C/C1=C\CC[C@@]2(C)O[C@@H]2[C@H]2OC(=O)[C@@H](CN(C)CCc3ccccc3)[C@@H]2CC1	2.52

QUERY: Which value of LipE pEC50–clog P has been reported for C/C1=C\CC[C@@]2(C)O[C@@H]2[C@H]2OC(=O)[C@@H](CN3CCC(c4cc(O)nc(C)n4)CC3)[C@@H]2CC1 [Compound 5f] in the records?
RESULT: 3.69

QUERY: Tell me the measured LipE pEC50–clog P of C/C1=C\CC[C@@]2(C)O[C@@H]2[C@H]2OC(=O)[C@@H](CN[C@@H](Cc3ccccc3)C(=O)O)[C@@H]2CC1 , please.
RESULT: 3.66

QUERY: I am curious: what LipE pEC50–clog P value has been reported for C/C1=C\CC[C@@]2(C)O[C@@H]2[C@H]2OC(=O)[C@@H](CN3CCCC3)[C@@H]2CC1 ?
RESULT: 2.35

QUERY: Which measured LipE pEC50–clog P value corresponds to C/C1=C\CC[C@@]2(C)O[C@@H]2[C@H]2OC(=O)[C@@H](CN3CCC(Oc4cccnc4)CC3)[C@@H]2CC1 ?
RESULT: 2.48

====

Assay: Murine intravenous PK study
Format: in vivo
Details: blood; mouse, IV 1 mg kg^–1; read-out: Mouse PK (IV) VSS
Property measured: Vd (L/kg)
Numeric only. Scale: L/kg

1. C/C1=C\CC[C@@]2(C)O[C@@H]2[C@H]2OC(=O)[C@@H](CN3CCCC3)[C@@H]2CC1 11.6

QUERY: Form field: reported Vd of C/C1=C\CC[C@@]2(C)O[C@@H]2[C@H]2OC(=O)[C@@H](CN3CCC(c4cc(O)nc(C)n4)CC3)[C@@H]2CC1
RESULT: 4.62

====

Assay: Microsomal stability assay (mouse)
Details: mouse microsomes; first of two columns headed A to B
One threshold, 100, splits the recorded Mouse microsomal stability values: lower ones are true, equal or higher ones are false.

Compound	Classification
C/C1=C\CC[C@@]2(C)O[C@@H]2[C@H]2OC(=O)[C@@H](CN3CCCC3)[C@@H]2CC1 [C00005]	true
C/C1=C\CC[C@@]2(C)O[C@@H]2[C@H]2OC(=O)[C@@H](CN[C@@H](Cc3ccccc3)C(=O)O)[C@@H]2CC1 [C00010]	true
CCn1cc(CN(C[C@@H]2C(=O)O[C@H]3[C@H]2CC/C(C)=C/CC[C@@]2(C)O[C@H]32)C(C)C)cn1 [C00002]	false
C/C1=C\CC[C@@]2(C)O[C@@H]2[C@H]2OC(=O)[C@@H](CN3CCC(OCc4cccnc4)CC3)[C@@H]2CC1 [C00009]	false
C/C1=C\CC[C@@]2(C)O[C@@H]2[C@H]2OC(=O)[C@@H](CN3CCC(c4cc(O)nc(C)n4)CC3)[C@@H]2CC1 [C00008]	true

Let's switch to this compound now.
QUERY: Could you please tell me whether Mouse microsomal stability recorded for C/C1=C\CC[C@@]2(C)O[C@@H]2[C@H]2OC(=O)[C@@H](CN3CCC(Oc4cccnc4)CC3)[C@@H]2CC1 [C00006] is less than 100?
RESULT: false

====

Assay: Caco-2 permeability assay
Assay type: in vitro ADME
Settings: human, Caco-2, pH 7.4
The following molecules are listed with their measured efflux ratio values.
Lab note: jot down the number only; don't add units.

Molecule	efflux ratio
C/C1=C\CC[C@@]2(C)O[C@@H]2[C@H]2OC(=O)[C@@H](CN3CCC(OCc4cccnc4)CC3)[C@@H]2CC1	0.8
C/C1=C\CC[C@@]2(C)O[C@@H]2[C@H]2OC(=O)[C@@H](CN3CCCC3)[C@@H]2CC1	1
C/C1=C\CC[C@@]2(C)O[C@@H]2[C@H]2OC(=O)[C@@H](CN[C@@H](Cc3ccccc3)C(=O)O)[C@@H]2CC1	2.7
C/C1=C\CC[C@@]2(C)O[C@@H]2[C@H]2OC(=O)[C@@H](CN3CCC(c4cc(O)nc(C)n4)CC3)[C@@H]2CC1	1.1

Continue with the next molecule.
QUERY: Need efflux ratio, item CC1=CCCC2(C)OC2C2OC(=O)C(CN3CCCC3)C2CC1 (centres unmarked)
RESULT: 1
